Taken from patent US10399995B2.

- Tgt: BACE1 (Homo sapiens, UniProt P56817)
- Construct: endogenous in cells; host or cells: SH-SY5Y (ATCC CRL2266) stably expressing human APP695Wt
- Sequence (P56817 46-501): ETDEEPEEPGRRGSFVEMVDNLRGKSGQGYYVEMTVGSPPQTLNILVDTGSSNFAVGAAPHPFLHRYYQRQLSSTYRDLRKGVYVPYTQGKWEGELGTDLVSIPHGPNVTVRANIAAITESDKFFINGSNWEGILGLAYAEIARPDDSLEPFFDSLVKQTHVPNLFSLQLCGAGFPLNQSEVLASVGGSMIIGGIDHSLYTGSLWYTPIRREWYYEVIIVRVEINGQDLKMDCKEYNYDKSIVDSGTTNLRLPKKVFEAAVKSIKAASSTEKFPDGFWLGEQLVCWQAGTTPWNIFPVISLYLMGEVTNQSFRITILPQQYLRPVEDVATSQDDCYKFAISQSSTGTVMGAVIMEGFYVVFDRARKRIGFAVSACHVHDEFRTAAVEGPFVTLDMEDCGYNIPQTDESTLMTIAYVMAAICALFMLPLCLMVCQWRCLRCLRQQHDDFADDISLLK
- Measurement protocol: SH-SY5YAPP695Wt Whole Cell Assay
- Type: cell-based
- Condition notes: SH-SY5Y cells expressing human APP695Wt, 24 hours, conditioned media; mean ± standard deviation of the mean, n=3; read-out: IC50 for SH-SY5YAPP695Wt A-beta (1-42) ELISA
Experimental readout: pIC50
Give bare numbers, as −log10 of the molar value.

Using known records, supply pIC50 for C[C@@]1(c2cc(NC(=O)c3nc4ccc(C#N)nc4s3)ccc2F)CO[C@@](C)(C(F)(F)F)C(N)=N1 [Example 1]
8.45

---

- Tgt: BACE1 (Homo sapiens, UniProt P56817)
- Construct: endogenous in cells; host or cells: SH-SY5Y (ATCC CRL2266) stably expressing human APP695Wt
- Measurement protocol: SH-SY5YAPP695Wt Whole Cell Assay
- Assay type: cell-based
- Condition notes: SH-SY5Y cells expressing human APP695Wt, 24 hours, conditioned media; mean ± standard deviation of the mean, n=3; read-out: IC50 for SH-SY5YAPP695Wt A-beta (1-40) ELISA
Experimental readout: pIC50
Give bare numbers, as −log10 of the molar value.

Fill in pIC50 for "C[C@@]1(c2cc(NC(=O)c3nc4ccc(C#N)nc4s3)ccc2F)CO[C@@](C)(C(F)(F)F)C(N)=N1" tested with BACE1 (Homo sapiens, UniProt P56817).
8.73

---

- Tgt: Human BACE1(1-460):Fc (Homo sapiens, UniProt P56817)
- Sequence (P56817 22-460): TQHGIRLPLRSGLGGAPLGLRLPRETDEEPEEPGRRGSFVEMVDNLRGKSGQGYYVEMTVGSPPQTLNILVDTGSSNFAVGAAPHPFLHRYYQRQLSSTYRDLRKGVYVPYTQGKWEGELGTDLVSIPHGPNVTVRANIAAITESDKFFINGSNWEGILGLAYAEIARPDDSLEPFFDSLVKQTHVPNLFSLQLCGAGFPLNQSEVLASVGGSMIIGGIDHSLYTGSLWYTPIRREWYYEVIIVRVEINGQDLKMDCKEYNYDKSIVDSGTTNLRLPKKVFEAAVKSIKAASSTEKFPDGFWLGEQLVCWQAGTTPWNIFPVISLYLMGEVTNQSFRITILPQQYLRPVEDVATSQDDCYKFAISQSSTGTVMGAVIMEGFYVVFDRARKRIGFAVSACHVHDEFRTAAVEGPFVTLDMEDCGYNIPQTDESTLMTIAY
- Measurement protocol: BACE1 FRET Assay
- Condition notes: purified recombinant huBACE1:Fc, pH 4.6, mean ± standard deviation of the mean, n=13
Experimental readout: IC50 (nM)
One number for each entry, in nM.

# return recorded IC50 for input "C[C@@]1(c2cc(NC(=O)c3nc4ccc(C#N)nc4s3)ccc2F)CO[C@@](C)(C(F)(F)F)C(N)=N1"
8.18
